tested on: MDA-MB-468; assay: Antiproliferative activity against human MDA-MB-468 cells measured after 48 hrs by SRB assay; type: functional, cell-based; conditions: MDA-MB-468, 48 h
readoutKind: pIC50
Give only the number. pIC50 is defined as minus log10 of concentration in molar units.

The examples below pair each entry with its known result.
smiles: COc1cccc(-c2nn(-c3ccccc3)cc2-c2ccnc(NCCCNC(=O)Nc3ccc(F)cc3)c2)c1
readoutKind: pIC50
reportedResult: 5.32
--
smiles: O=C(Nc1ccc(Cl)c(C(F)(F)F)c1)N1CCN(c2cc(-c3cn(-c4ccccc4)nc3-c3cccc(O)c3)ccn2)CC1
readoutKind: pIC50
reportedResult: 5.99
--
smiles: O=C(NCCCNc1cc(-c2cn(-c3ccccc3)nc2-c2cccc(O)c2)ccn1)Nc1ccc(F)cc1
readoutKind: pIC50
reportedResult: 5.93

stdin: Suppose we examine the molecule O=C(NCCCNc1cc(-c2cn(-c3ccccc3)nc2-c2cccc(O)c2)ccn1)Nc1cccc(C(F)(F)F)c1 ; what pIC50 value has been reported?
stdout: 5.79
